Quick list: pKi per entry.
# study.target: Prothrombin (Homo sapiens, UniProt P00734)
Here pKi is given on a logarithmic scale as minus log10 of the concentration in mol/L.

Illustrative cases are given below, each with its answer.
mol: N=C(N)Nc1ccc(CCC(=O)N2CCN(C(=O)O[C@H]3CCC[C@@H](OC(=O)N4CCN(C(=O)CCc5ccc(NC(=N)N)cc5)CC4)CCC3)CC2)cc1
pKi: 3.27
//
mol: N=C(N)Nc1ccc(CNC(=O)N2CCN(C(=O)OC[C@H]3C4C=CC(CC4)[C@@H]3COC(=O)N3CCN(C(=O)NCc4ccc(NC(=N)N)cc4)CC3)CC2)cc1
pKi: 3.86

Please examine the following record next.
Entry "N=C(N)c1ccc(CC(=O)N2CCN(C(=O)O[C@H]3CCC[C@@H](OC(=O)N4CCN(C(=O)Cc5ccc(C(=N)N)cc5)CC4)CCC3)CC2)cc1" needs its pKi filled in; supply it. 4.47
